Provenance of the data: patent US20170121322A1

- Target of assay: BRD4 bromo domain 1 [BRD4(1)] (Homo sapiens)
- Construct: N-terminally His6-tagged BRD4(1) (amino acids 67-152)
- Experimental protocol: BRD4(1)/acetylated peptide H4 TR-FRET binding assay
- Measurement conditions: His6-BRD4(1) (aa 67-152) vs acetylated histone H4 peptide
pIC50: −log10 of the molar value.
Endpoint: pIC50

{"columns": ["Compound", "Reported measurement"],
 "data": [
  ["CCOC(=O)N=S(C)(=O)c1cccc(Nc2ccc3c(n2)N(C2CCOCC2)[C@H](C)C(=O)N3C)c1 (mixture of isomers)", 5.44],
  ["COc1ccc(S(=O)(=O)C2CC2)cc1Nc1ccc2c(n1)N(C1CCN(C)CC1)[C@H](C)C(=O)N2C", 7.72]
]}

A. CC(C)S(=O)(=O)c1ccc(OC(F)(F)F)c(Nc2ccc3c(n2)N(C2CCOCC2)[C@H](C)C(=O)N3C)c1
B. C[C@@H]1C(=O)N(C)c2ccc(Nc3ccc4c(c3)S(=O)(=O)CC4)nc2N1C1CCOCC1
Lookup: # query: argmin of pIC50 over A and B Refer to your chosen entry by its label in the reply.
Found: B

----------
- Test system: MOLM-13 cells
- Experimental protocol: Cell proliferation assay MOLM-13, method 2 (CellTiterGlo)
- Format: cell-based
- Measurement conditions: Homo sapiens, MOLM-13, 72 h; acute myeloid leukaemia cells, 500 cells/well, 1536-well, 3-day incubation, CellTiterGlo ATP readout
Endpoint: IC50 (nM)

A. COc1ccc(S(C)(=O)=O)cc1Nc1ccc2c(n1)N(C1CCN(C(=O)OC(C)(C)C)CC1)[C@H](C)C(=O)N2C
B. COc1ccc(S(=O)(=O)C(C)C)cc1Nc1ccc2c(n1)N(C1CCN(C(=O)OC(C)(C)C)CC1)[C@H](C)C(=O)N2C
Lookup: Of A and B , whose reported IC50 is the larger number? Refer to your chosen entry by its label in the reply.
Found: A
(A: 576 nM, B: 147 nM)

----------
- System: CHL-1 cells
- Experimental protocol: Cell proliferation assay CHL-1 (alamarBlue)
- Format: cell-based
- Measurement conditions: Homo sapiens, melanoma (BRAF wild-type) cells, 96 hours
# IC50 per record follows
Dear colleague, please return just the value in nM, with no unit written.

{"columns": ["Compound", "Target of assay", "Value units", "Reported measurement"],
 "data": [
  ["COc1ccc(S(=O)(=O)C(C)C)cc1Nc1ccc2c(n1)N(C1CCN(CCC(F)(F)F)CC1)[C@H](C)C(=O)N2C", "CHL-1 cells", "nM", 12],
  ["COc1ccc(S(=O)(=O)C2CC2)cc1Nc1ccc2c(n1)N(C1CCOCC1)[C@H](C)C(=O)N2C", "CHL-1 cells", "nM", 18],
  ["CCOC(=O)N=S(C)(=O)c1cccc(Nc2ccc3c(n2)N(C2CCOCC2)[C@H](C)C(=O)N3C)c1 (mixture of isomers)", "CHL-1 cells", "nM", 196],
  ["Cc1ccc(S(C)(=O)=O)cc1Nc1ccc2c(n1)N(C1CCOCC1)[C@H](C)C(=O)N2C", "CHL-1 cells", "nM", 189],
  ["COc1ccc(S(=O)(=O)C2CC2)cc1Nc1ccc2c(n1)N(C1CCN(C)CC1)[C@H](C)C(=O)N2C", "CHL-1 cells", "nM", 13]
]}

Lookup: What measured IC50 is associated with `CC(C)S(=O)(=O)c1ccc(OC(F)(F)F)c(Nc2ccc3c(n2)N(C2CCOCC2)[C@H](C)C(=O)N3C)c1` on CHL-1 cells?
Found: 24

Lookup: Try this compound too: `COc1ccc(S(=O)(=O)C(C)C)cc1Nc1ccc2c(n1)N(C(C)C)[C@H](C)C(=O)N2C`
Found: 76

Lookup: Try this compound too: `Cc1cc(Nc2ccc3c(n2)N(C2CCOCC2)[C@H](C)C(=O)N3C)ccn1`
Found: 445

Lookup: Try this compound too: `COc1ccc(S(=O)(=O)C2CCOCC2)cc1Nc1ccc2c(n1)N(C1CCOCC1)[C@H](C)C(=O)N2C`
Found: 30

Lookup: Try this compound too: `CC(C)S(=O)(=O)c1ccc(OC(F)(F)F)c(Nc2ccc3c(n2)N(C2CCN(C)CC2)[C@H](C)C(=O)N3C)c1`
Found: 20

Lookup: Try this compound too: `CC(C)S(=O)(=O)c1cccc(Nc2ccc3c(n2)N(C2CCOCC2)[C@H](C)C(=O)N3C)c1`
Found: 51

Lookup: Try this compound too: `C[C@@H]1C(=O)N(C)c2ccc(Nc3cccc(C(F)(F)F)c3)nc2N1C1CCOCC1`
Found: 707

Lookup: Try this compound too: `C[C@@H]1C(=O)N(C)c2ccc(Nc3cccc(S(C)(=O)=O)c3)nc2N1C1CCN(C)CC1`
Found: 109

Lookup: Try this compound too: `CC(C)S(=O)(=O)c1cccc(Nc2ccc3c(n2)N(C2CCN(C)CC2)[C@H](C)C(=O)N3C)c1`
Found: 17

Lookup: Try this compound too: `COc1ccc(S(C)(=O)=O)cc1Nc1ccc2c(n1)N(C1CCNCC1)[C@H](C)C(=O)N2C`
Found: 311
